Entry source: patent US20230086703A1

The reader will find reported IC50 values listed item by item below.
Target: human CTPS1 (Homo sapiens, UniProt P17812)
Construct: FLAG (with GG linker); His8 (with GG linker); purchased Proteros biostructures GmbH
Sequence (P17812 whole entry): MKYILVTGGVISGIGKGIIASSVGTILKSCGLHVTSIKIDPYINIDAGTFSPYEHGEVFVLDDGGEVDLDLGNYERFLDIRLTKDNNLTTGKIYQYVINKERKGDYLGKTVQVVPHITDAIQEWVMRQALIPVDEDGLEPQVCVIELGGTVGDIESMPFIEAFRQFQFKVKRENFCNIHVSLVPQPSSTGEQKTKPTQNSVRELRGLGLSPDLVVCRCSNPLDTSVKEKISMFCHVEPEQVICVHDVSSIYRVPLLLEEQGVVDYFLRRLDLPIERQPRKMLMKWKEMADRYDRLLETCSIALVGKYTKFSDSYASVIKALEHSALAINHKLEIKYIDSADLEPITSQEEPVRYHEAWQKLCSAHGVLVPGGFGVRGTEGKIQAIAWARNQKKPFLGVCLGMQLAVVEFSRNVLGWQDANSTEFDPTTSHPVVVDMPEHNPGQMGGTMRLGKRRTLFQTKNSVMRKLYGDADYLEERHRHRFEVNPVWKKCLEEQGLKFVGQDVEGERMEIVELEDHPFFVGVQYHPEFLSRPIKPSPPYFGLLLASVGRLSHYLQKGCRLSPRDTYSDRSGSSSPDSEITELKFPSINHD
Assay: Human CTPS1 enzyme inhibition, ADP-Glo Max assay
Type: biochemical
Conditions: ADP-Glo Max assay; Table 10; read-out: Human CTPS1 Enzyme Inhibition, IC50 grouped by potency range (CTPS1)
value.type: IC50

[[record]]
mol = "CC(C)(C(=O)Nc1ncc(-c2cncc(C(F)(F)F)c2)cn1)c1csc(NS(=O)(=O)C2CC2)n1"
value_type = "IC50"
observed_value = "100 to 1000 nM"

[[record]]
mol = "CCC(CC)(C(=O)Nc1ccc(-c2cncc(F)c2)cc1)c1csc(NS(=O)(=O)C2CC2)n1"
value_type = "IC50"
observed_value = "< 100 nM"

[[record]]
mol = "Cc1cncc(-c2ccc(NC(=O)C(C)(C)c3csc(NS(=O)(=O)C4CC4)n3)cc2)n1"
value_type = "IC50"
observed_value = "< 100 nM"

[[record]]
mol = "COc1cccc(-c2ccc(NC(=O)C(C)(C)c3csc(NS(=O)(=O)C4CC4)n3)cc2)n1"
value_type = "IC50"
observed_value = "100 to 1000 nM"

[[record]]
mol = "O=C(Cc1csc(NS(=O)(=O)C2CC2)n1)Nc1ccc(-c2cccnc2)cn1"
value_type = "IC50"
observed_value = "100 to 1000 nM"

[[record]]
mol = "CCOc1cncc(-c2ccc(NC(=O)C(F)(F)c3csc(NS(=O)(=O)C4CC4)n3)nc2)n1"
value_type = "IC50"
observed_value = "100 to 1000 nM"

[[record]]
mol = "Cc1ncccc1-c1ccc(NC(=O)C(C)(C)c2csc(NS(=O)(=O)C3CC3)n2)cc1"
value_type = "IC50"
observed_value = "100 to 1000 nM"

[[record]]
mol = "CC(C)(C(=O)Nc1ncc(-c2cncc(C#N)n2)cc1F)c1csc(NS(=O)(=O)C2CC2)n1"
value_type = "IC50"
observed_value = "1000 to 10000 nM"


----------
Target: human CTPS1 (Homo sapiens, UniProt P17812)
Construct: FLAG (with GG linker); His8 (with GG linker); purchased Proteros biostructures GmbH
Assay: RapidFire/MS-based enzyme selectivity assay (human CTPS1 versus CTPS2), CTPS1 isoform
Format: biochemical
Settings: RapidFire/MS IC50 values of CTPS1 and CTPS2; Table 15
value.type: Selectivity (fold selectivity between CTPS1 and CTPS2)

[[record]]
compound = "CCOc1cncc(-c2ccc(NC(=O)C(C)(CCOC)c3cncc(NS(=O)(=O)C4CC4)n3)nc2)n1 (stereo not shown)"
observed_value = "+++ (>60 fold (+++))"

[[record]]
compound = "CCOc1cncc(-c2ccc(NC(=O)C(CC)c3cncc(NS(=O)(=O)C4CC4)n3)nc2)n1 (stereo not shown)"
observed_value = "+++ (>60 fold (+++))"

[[record]]
compound = "CCOc1cncc(-c2ccc(NC(=O)C(C)(C)c3ccnc(NS(=O)(=O)C4CC4)n3)cc2)n1"
observed_value = "++ (>30-60 fold (++))"

[[record]]
compound = "CCOc1cncc(-c2cnc(NC(=O)C(CC)c3ccnc(NS(=O)(=O)C4CC4)n3)c(F)c2)n1 (stereo not shown)"
observed_value = "++ (>30-60 fold (++))"

[[record]]
compound = "CCOc1cncc(-c2ccc(NC(=O)C3(c4cncc(NS(=O)(=O)C5CC5)n4)CCOCC3)nc2)n1"
observed_value = "+++ (>60 fold (+++))"

[[record]]
compound = "CCOc1cncc(-c2ccc(C(=O)NCc3ccnc(NS(=O)(=O)C4CC4)n3)cc2)n1"
observed_value = "+++ (>60 fold (+++))"

[[record]]
compound = "CC(C)Oc1cncc(-c2ccc(NC(=O)C(C)(C)c3ccnc(NS(=O)(=O)C4CC4)n3)nc2)n1"
observed_value = "+++ (>60 fold (+++))"

[[record]]
compound = "CCOc1cncc(-c2ccc(NC(=O)C(CC)c3cccc(NS(=O)(=O)C4CC4)n3)cc2)n1 (stereo not shown)"
observed_value = "++ (>30-60 fold (++))"

[[record]]
compound = "CCOc1cncc(-c2ccc(NC(=O)C(CCOC)c3ccnc(NS(=O)(=O)C4CC4)n3)cc2)n1 (stereo not shown)"
observed_value = "++ (>30-60 fold (++))"

[[record]]
compound = "CCOc1cncc(-c2ccc(NC(=O)C3(c4ccnc(NS(=O)(=O)C5CC5)n4)CCOCC3)nc2)n1"
observed_value = "+++ (>60 fold (+++))"

[[record]]
compound = "CCOc1cncc(-c2ccc(NC(=O)C(F)(CC)c3cncc(NS(=O)(=O)C4CC4)n3)nc2)n1 (stereo not shown) [P200]"
observed_value = "++ (>30-60 fold (++))"

[[record]]
compound = "CCOc1cncc(-c2ccc(NC(=O)C(C)(C)c3nc(NS(=O)(=O)C4CC4)ncc3F)cc2)n1"
observed_value = "++ (>30-60 fold (++))"

[[record]]
compound = "CCOc1cncc(-c2ccc(NC(=O)Cc3ccnc(NS(=O)(=O)C4CC4)n3)cc2)n1"
observed_value = "++ (>30-60 fold (++))"

[[record]]
compound = "CCC(C(=O)Nc1ccc(-c2cncc(C(F)(F)F)n2)cn1)c1ccnc(NS(=O)(=O)C2CC2)n1 (stereo not shown)"
observed_value = "++ (>30-60 fold (++))"

[[record]]
compound = "CCOc1cncc(-c2ccc(NC(=O)C(C)(C)c3cncc(NS(=O)(=O)C4CC4)n3)cc2)n1"
observed_value = "+++ (>60 fold (+++))"

